Listing of IC50 toward Serine/threonine-protein kinase B-raf (Homo sapiens, UniProt P15056), each taken from a published source.
Quick reminder: number only, in nM, skip the unit.

For orientation, consider the following solved cases.
[
  {
    "COMPOUND": "O=C(Nc1cccc(Nc2ncnc3cc(OCCCN4CCN(CCO)CC4)ccc23)c1)Nc1ccc(Cl)c(C(F)(F)F)c1",
    "UNIT": "nM",
    "IC50": 101
  },
  {
    "COMPOUND": "O=S1(=O)CC2(OCCO2)c2cc3nccc(Nc4ccc5scnc5c4)c3cc21",
    "UNIT": "nM",
    "IC50": 1360
  },
  {
    "COMPOUND": "COc1cc2ncnc(Nc3cccc(NC(=O)Nc4cccc(C)c4)c3)c2cc1OCCCN1CCOCC1",
    "UNIT": "nM",
    "IC50": 119
  },
  {
    "COMPOUND": "Cc1ccc(S(=O)(=O)NCCNc2nccc(-c3c(-c4cccc(O)c4)nc4sccn34)n2)cc1",
    "UNIT": "nM",
    "IC50": 64
  },
  {
    "COMPOUND": "CC(O)CNS(=O)(=O)c1ccc2[nH]c3c(C(N)=O)nccc3c2c1 (centres undefined)",
    "UNIT": "nM",
    "IC50": 22000
  }
]

INPUT: Give the value of IC50 reported for the following: `COc1ccc(NC(=S)N2CCN(c3nnc(Cc4ccccc4)c4ccccc34)CC2)cc1`
OUTPUT: 4490

###

Listing of IC50 toward Serine/threonine-protein kinase B-raf (Homo sapiens, UniProt P15056), each taken from a published source.
Quick reminder: number only, in nM, skip the unit.

[
  {
    "COMPOUND": "Nc1cc(Oc2ccc(NC(=O)Nc3cccc(C(F)(F)F)c3)cc2)ncn1",
    "SYSTEM": "Serine/threonine-protein kinase B-raf (Homo sapiens, UniProt P15056)",
    "UNIT": "nM",
    "READING": 1600
  },
  {
    "COMPOUND": "Nc1ncc(-c2cccnc2)c2scc(-c3cccc(NC(=O)Nc4ccc(Cl)c(C(F)(F)F)c4)c3)c12",
    "SYSTEM": "Serine/threonine-protein kinase B-raf (Homo sapiens, UniProt P15056)",
    "UNIT": "nM",
    "READING": 16.6
  },
  {
    "COMPOUND": "CNc1nccc(Oc2ccc(NC(=O)Nc3cccc(C(F)(F)F)c3)cc2)n1",
    "SYSTEM": "Serine/threonine-protein kinase B-raf (Homo sapiens, UniProt P15056)",
    "UNIT": "nM",
    "READING": 63
  }
]

# context switch: different compound, same IC50
INPUT: Param request: IC50 | system Serine/threonine-protein kinase B-raf (Homo sapiens, UniProt P15056) | item `CNc1nccc(CNc2ccccc2C(=O)Nc2ccc3c(c2)OC(F)(F)O3)n1`
OUTPUT: 26

###

Listing of pIC50 toward Serine/threonine-protein kinase B-raf (Homo sapiens, UniProt P15056), each taken from a published source.
Remember the convention: pIC50 equals -log10 of concentration in molar.

[
  {
    "COMPOUND": "COc1ccc(NC(=O)N2CCN(c3nnc(Cc4ccccc4)c4ccccc34)CC2)cc1",
    "READING": 5.61
  },
  {
    "COMPOUND": "COc1cccc(-c2nc3sccn3c2-c2ccnc(NCCCNS(=O)(=O)c3ccccc3)n2)c1",
    "READING": 6.14
  },
  {
    "COMPOUND": "O=C(Nc1ccc2c(c1)OC(F)(F)O2)c1ccccc1NCc1ccnc(NCCOCCO)c1",
    "READING": 6.78
  },
  {
    "COMPOUND": "O=S(=O)(NCCNc1nccc(-c2c(-c3ccccc3)nc3sccn23)n1)c1ccc(F)cc1",
    "READING": 6.43
  },
  {
    "COMPOUND": "NC(=O)c1nccc2c1[nH]c1ccc(S(=O)(=O)Nc3nccs3)cc12",
    "READING": 5.13
  },
  {
    "COMPOUND": "CCOC(=O)c1ccc(Nc2ccnc(SCC(=O)c3ccc([N+](=O)[O-])cc3)n2)cc1",
    "READING": 6.66
  },
  {
    "COMPOUND": "CNc1cc(Oc2ccc(NC(=O)Nc3cccc(C(F)(F)F)c3)cc2)ncn1",
    "READING": 6.30
  }
]

# context switch: different compound, same pIC50
INPUT: Give the value of pIC50 reported for the following: O=C(c1ccc(-c2ccccn2)s1)N1N=C(c2cccnc2)CC1c1ccccc1O (racemic)
OUTPUT: 7.77
